B1: glmS ribozyme (parent)
chain: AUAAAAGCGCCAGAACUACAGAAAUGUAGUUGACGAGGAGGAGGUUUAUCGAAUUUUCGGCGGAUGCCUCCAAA

# Variants of: B1
# experiment: KM; higher = weaker cofactor use; RNA array
# test_conditions: with glucosamine-6-phosphate
Label scheme for KM: lower than 2000 µM is label 0, 2000 µM and above is label 1.

[[record]]
sequence_variant = "A12C C16A"
class = "label 1"

[[record]]
sequence_variant = "G29U G40U"
class = "label 0"

[[record]]
sequence_variant = "C11U U54C U56C"
class = "label 1"

[[record]]
sequence_variant = "U54A U55A"
class = "label 0"

[[record]]
sequence_variant = "C11A C58A"
class = "label 0"

[[record]]
sequence_variant = "C10U A12G"
class = "label 1"

[[record]]
sequence_variant = "A39U A64U"
class = "label 0"

[[record]]
sequence_variant = "U30G G40C"
class = "label 0"

[[record]]
sequence_variant = "G13A U57C"
class = "label 1"

[[record]]
sequence_variant = "A6U U54G"
class = "label 1"

[[record]]
sequence_variant = "U49G U65G"
class = "label 1"

[[record]]
sequence_variant = "U55G C58A"
class = "label 1"

[[record]]
sequence_variant = "G51A G59U"
class = "label 0"

